molecular target: T1, 2M; test: flow cytometry on peptide-pulsed T2 cells, scFv 100 nM
T1 construct: also called HLA-A2 / point-mutant NY-ESO peptide 2M complex on T2 cells
true means recorded standardized gMFI is 7 or above; false means it is below 7.

{"columns": ["binder", "class-assignment"],
 "data": [
  ["NYA-2045 (scFv, also called NYA-2045 tag adduct) scFv: GEVQLVESGGGLVQPGGSLRLSCAASGFSIRSYDIHWVRLAPGKGLEWVATISYDGSQKYYADSVKGRFTISRDESKNTLYLQMNSLRAEDTAVYHCARGSSGHYEAFDIWGQGTLVTVSSGGGGSGGGGSGGGGSQSVLTQPPSASGTPGQRVTISCSGSSSNIGNWYVSWYQQLPGTAPKLLIYDNNKRPSGVPDRFSGSKSGTSASLAISGLQSEDEADYYCGTWDSSLSAPWVFGGGTKLTVLGAAAGAGGDYKDDDDKGAAAHHHHHH", "true"],
  ["NYA-2143 (scFv) scFv: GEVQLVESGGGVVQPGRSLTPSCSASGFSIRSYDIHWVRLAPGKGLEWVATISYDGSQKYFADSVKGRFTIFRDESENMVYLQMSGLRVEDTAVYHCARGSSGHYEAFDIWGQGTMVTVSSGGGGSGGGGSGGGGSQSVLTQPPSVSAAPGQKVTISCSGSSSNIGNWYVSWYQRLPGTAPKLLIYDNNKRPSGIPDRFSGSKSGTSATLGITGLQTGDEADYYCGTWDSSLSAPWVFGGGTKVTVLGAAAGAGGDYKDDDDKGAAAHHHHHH", "true"],
  ["NYC-0003 (scFv, not shown: small tags and cut ends, also called 3M4E5 scFv; NYC-0003 tag adduct) scFv: EVQLLESGGGLVQPGGSLRLSCAASGFTFSTYQMSWVRQAPGKGLEWVSGIVSSGGSTAYADSVKGRFTISRDNSKNTLYLQMNSLRAEDTAVYYCAGELLPYYGMDVWGQGTTVTVSSGGGGSGGGGSGGGGSQSELTQPRSVSGSPGQSVTISCTGTSRDVGGYNYVSWYQQHPGKAPKLIIHDVIERSSGVPDRFSGSKSGNTASLTISGLQAEDEADYYCWSFAGSYYVFGTGTDVTVL", "false"],
  ["NYA-1154 (scFv) scFv: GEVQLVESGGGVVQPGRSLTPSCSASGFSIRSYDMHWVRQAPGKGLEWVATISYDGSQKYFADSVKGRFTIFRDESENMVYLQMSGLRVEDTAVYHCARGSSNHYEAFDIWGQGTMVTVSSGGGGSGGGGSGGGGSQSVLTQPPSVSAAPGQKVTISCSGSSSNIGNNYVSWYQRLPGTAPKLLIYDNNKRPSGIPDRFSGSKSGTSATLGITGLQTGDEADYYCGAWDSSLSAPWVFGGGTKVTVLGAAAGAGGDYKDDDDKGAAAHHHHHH", "true"]
]}

Ask | Evaluate NYA-2023 (scFv) scFv: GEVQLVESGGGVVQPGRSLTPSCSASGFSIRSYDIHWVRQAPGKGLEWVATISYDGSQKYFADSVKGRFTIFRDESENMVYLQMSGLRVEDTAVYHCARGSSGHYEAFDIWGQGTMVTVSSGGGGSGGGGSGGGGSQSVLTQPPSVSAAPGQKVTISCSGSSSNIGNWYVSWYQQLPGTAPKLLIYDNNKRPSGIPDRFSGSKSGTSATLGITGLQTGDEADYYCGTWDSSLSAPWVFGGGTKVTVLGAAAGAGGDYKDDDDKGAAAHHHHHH : standardized gMFI at minimum 7?
Reply | false

Ask | Does standardized gMFI meet or surpass 7 for NYA-0001 (scFv, also called NYA-0001 tag adduct; NY-R119 expressed in a cultured mammalian cell) scFv: GEVQLVESGGGVVQPGRSLTPSCSASGFSIRSYDIHWVRQAPGKGLEWVATISYDGSQKYFADSVKGRFTIFRDESENMVYLQMSGLRVEDTAVYHCARGSSGHYEAFDIWGQGTMVTVSSGGGGSGGGGSGGGGSQSVLTQPPSVSAAPGQKVTISCSGSSSNIGNNYVSWYQQLPGTAPKLLIYDNNKRPSGIPDRFSGSKSGTSATLGITGLQTGDEADYYCGTWDSSLSAPWVFGGGTKVTVLGAAAGAGGDYKDDDDKGAAAHHHHHH ?
Reply | true

Ask | Assess whether reported standardized gMFI for NYA-2048 (scFv, also called NYA-2048 tag adduct) scFv: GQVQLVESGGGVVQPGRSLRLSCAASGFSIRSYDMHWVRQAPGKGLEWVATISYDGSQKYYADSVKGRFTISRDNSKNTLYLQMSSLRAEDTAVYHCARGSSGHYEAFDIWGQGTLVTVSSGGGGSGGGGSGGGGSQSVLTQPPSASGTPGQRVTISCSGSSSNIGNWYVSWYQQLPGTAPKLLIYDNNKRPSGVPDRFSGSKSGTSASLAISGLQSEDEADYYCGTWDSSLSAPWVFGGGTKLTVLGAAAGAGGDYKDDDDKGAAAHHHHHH sits at 7 or higher.
Reply | false

Ask | Has NYA-1143 (scFv) scFv: GEVQLVESGGGVVQPGRSLTPSCSASGFSIRSYDIHWVRLAPGKGLEWVATISYDGSQKYFADSVKGRFTIFRDESENMVYLQMSGLRVEDTAVYHCARGSSGHYEAFDIWGQGTMVTVSSGGGGSGGGGSGGGGSQSVLTQPPSVSAAPGQKVTISCSGSSSNIGNWYVSWYQQLPGTAPKLLIYDNNKRPSGIPDRFSGSKSGTSATLGITGLQTGDEADYYCGTWDSSLSAPWVFGGGTKVTVLGAAAGAGGDYKDDDDKGAAAHHHHHH a recorded standardized gMFI greater than or equal to 7?
Reply | true

meta.source: patent US20230348616A1
